Values were extracted from ChEMBL document CHEMBL3091298.

Consider the following compounds and their measured viability at 6 h, 1 ug/ml readings.
Assay: Genotoxicity in polA-deficient Escherichia coli assessed as survival at 1 ug/ml after 6 hrs by DNA-repair test
Assay type: toxicity, organism-based
Conditions: read-out: Survival
measured.attribute: viability at 6 h, 1 ug/ml (%)

[[record]]
compound = "CCCC[P+](CCCC)(CCCC)Cc1nc(C)c2c(c1C[P+](CCCC)(CCCC)CCCC)COC(C)(C)O2.[Cl-].[Cl-]"
test_result = 112

[[record]]
compound = "Cc1nc(C[P+](c2ccccc2)(c2ccccc2)c2ccccc2)c(C[P+](c2ccccc2)(c2ccccc2)c2ccccc2)c2c1OC(C)(C)OC2.[Cl-].[Cl-]"
test_result = 114

[[record]]
compound = "CCCC1OCc2c(C[P+](c3ccccc3)(c3ccccc3)c3ccccc3)c(C[P+](c3ccccc3)(c3ccccc3)c3ccccc3)nc(C)c2O1.[Cl-].[Cl-] (stereo not drawn)"
test_result = 110


---

Assay: Cytotoxicity against HEK293 cells after 72 hrs by MTT assay
Type: cell-based
Settings: human, HEK293 cells
Consider the following compounds and their measured CC50 at 72 h readings.
measured.attribute: CC50 at 72 h (µg/mL)

[[record]]
compound = "CCCC[P+](CCCC)(CCCC)Cc1nc(C)c2c(c1C[P+](CCCC)(CCCC)CCCC)COC(C)(C)O2.[Cl-].[Cl-]"
endpoint_unit = "µg/mL"
test_result = 200

[[record]]
compound = "Cc1nc(C[P+](c2ccccc2)(c2ccccc2)c2ccccc2)c(C[P+](c2ccccc2)(c2ccccc2)c2ccccc2)c2c1OC(C(C)C)OC2.[Cl-].[Cl-] (stereo not given)"
endpoint_unit = "µg/mL"
test_result = 2.57

[[record]]
compound = "CCCC1OCc2c(C[P+](c3ccccc3)(c3ccccc3)c3ccccc3)c(C[P+](c3ccccc3)(c3ccccc3)c3ccccc3)nc(C)c2O1.[Cl-].[Cl-] (stereo not given)"
endpoint_unit = "µg/mL"
test_result = 3

[[record]]
compound = "CCCCC1OCc2c(C[P+](c3ccccc3)(c3ccccc3)c3ccccc3)c(C[P+](c3ccccc3)(c3ccccc3)c3ccccc3)nc(C)c2O1.[Cl-].[Cl-] (stereo not given)"
endpoint_unit = "µg/mL"
test_result = 2

[[record]]
compound = "Cc1nc(C[P+](c2ccccc2)(c2ccccc2)c2ccccc2)c(C[P+](c2ccccc2)(c2ccccc2)c2ccccc2)c2c1OC(C)OC2.[Cl-].[Cl-] (stereo not given)"
endpoint_unit = "µg/mL"
test_result = 33.9

[[record]]
compound = "CCCCCCCC1OCc2c(C[P+](c3ccccc3)(c3ccccc3)c3ccccc3)c(C[P+](c3ccccc3)(c3ccccc3)c3ccccc3)nc(C)c2O1.[Cl-].[Cl-] (stereo not given)"
endpoint_unit = "µg/mL"
test_result = 0.5

[[record]]
compound = "CCC1OCc2c(C[P+](c3ccccc3)(c3ccccc3)c3ccccc3)c(C[P+](c3ccccc3)(c3ccccc3)c3ccccc3)nc(C)c2O1.[Cl-].[Cl-] (stereo not given)"
endpoint_unit = "µg/mL"
test_result = 4

[[record]]
compound = "CCCC1OCc2c(C[P+](c3ccc(C)cc3)(c3ccc(C)cc3)c3ccc(C)cc3)c(C[P+](c3ccc(C)cc3)(c3ccc(C)cc3)c3ccc(C)cc3)nc(C)c2O1.[Cl-].[Cl-] (stereo not given)"
endpoint_unit = "µg/mL"
test_result = 1

[[record]]
compound = "Cc1ccc([P+](Cc2nc(C)c3c(c2C[P+](c2ccc(C)cc2)(c2ccc(C)cc2)c2ccc(C)cc2)COC(C)(C)O3)(c2ccc(C)cc2)c2ccc(C)cc2)cc1.[Cl-].[Cl-]"
endpoint_unit = "µg/mL"
test_result = 29.5

[[record]]
compound = "Cc1cccc([P+](Cc2nc(C)c3c(c2C[P+](c2cccc(C)c2)(c2cccc(C)c2)c2cccc(C)c2)COC(C)(C)O3)(c2cccc(C)c2)c2cccc(C)c2)c1.[Cl-].[Cl-]"
endpoint_unit = "µg/mL"
test_result = 13

